assay: Plasma pharmacokinetics after single oral doses (Example 1); type: in vivo, human; settings: human, plasma; single oral doses of 10 and 30 mg; read-out: median Tmax
quantity_name: Tmax (h)
Please respond with the number in h and leave the unit unwritten.

Any idea what its Tmax is? The compound is CC(C)(C)C(=O)NCc1ccc(Cl)c(-c2nn(-c3ccc(C(F)(F)F)cc3)c(=O)[nH]2)c1
2
